Test system: Staphylococcus aureus PB1801
Construct: PB1801
Assay: microbe, parasite or virus in culture
Design: Broth microdilution MIC in cation-adjusted MHB-Ca2+, growth inhibition per EUCAST reading
Conditions: PB1801, 16 h, replicate 1
observation.type: MIC (µg/mL)
One number for each entry, in µg/mL.

Observe how each entry below is paired with its result.
[[record]]
smiles_string = "CC(=O)NC[C@H]1CN(c2ccc(N3CCOCC3)c(F)c2)C(=O)O1"
target_entity = "Staphylococcus aureus PB1801"
reported_measurement = 4

[[record]]
smiles_string = "CN[C@H](CC(C)C)C(=O)N[C@H]1C(=O)N[C@@H](CC(N)=O)C(=O)N[C@H]2C(=O)N[C@H]3C(=O)N[C@H](C(=O)N[C@H](C(=O)O)c4cc(O)cc(O)c4-c4cc3ccc4O)[C@H](O)c3ccc(c(Cl)c3)Oc3cc2cc(c3O[C@@H]2O[C@H](CO)[C@@H](O)[C@H](O)[C@H]2O[C@H]2C[C@](C)(N)[C@H](O)[C@H](C)O2)Oc2ccc(cc2Cl)[C@H]1O"
target_entity = "Staphylococcus aureus PB1801"
reported_measurement = 2

[[record]]
smiles_string = "CCCCCCCCCC(=O)N[C@@H](Cc1c[nH]c2ccccc12)C(=O)N[C@H](CC(N)=O)C(=O)N[C@@H](CC(=O)O)C(=O)N[C@@H]1C(=O)NCC(=O)N[C@@H](CCCN)C(=O)N[C@@H](CC(=O)O)C(=O)N[C@H](C)C(=O)N[C@@H](CC(=O)O)C(=O)NCC(=O)N[C@H](CO)C(=O)N[C@@H]([C@H](C)CC(=O)O)C(=O)N[C@@H](CC(=O)c2ccccc2N)C(=O)O[C@@H]1C"
target_entity = "Staphylococcus aureus PB1801"
reported_measurement = 2


Query compound follows.
**Query** Can you look up the measured MIC of `CCO/N=C(\C(=O)N[C@@H]1C(=O)N2C(C(=O)[O-])=C(Sc3nc(-c4cc[n+](C)cc4)cs3)CS[C@H]12)c1nsc(N)n1` for me?
**Result** 0.5
